Where do the numbers come from? From patent US7138361B2.

Tested on: Surinam grass (Brachiaria decumbens)
Protocol Description: Test B postemergence
Format: in vivo
Measurement Parameters: Rate 500 g/ha, scale 0 to 100, 0 is no effect, 100 is complete control, 13 to 15 days
Field: Plant response rating, Surinam grass. Provide a value for each of the compounds that follow.
Numbers only.

1) CCOc1ccn(C2CCN(c3cccc(C(F)(F)F)c3)C2=O)n1 (stereo not shown): 0
2) O=C1C(n2ccc(C3CCC3)n2)SCN1c1cccc(OC(F)F)c1 (stereo not shown): 0
3) CCCCC(CCCC)c1ccn(C2SCN(c3cccc(C(F)(F)F)c3)C2=O)n1 (stereo not shown): 20

[ask] // lookup Plant response rating, Surinam grass | system=Surinam grass (Brachiaria decumbens) | key= CC(C)(C)c1nn(C2CCN(c3cccc(C(F)(F)F)c3)C2=O)cc1Cl (stereo not shown)
[reply] 0

----------
System: kochia (Kochia scoparia)
Protocol Description: Test C preemergence
Type: in vivo
Measurement Parameters: Rate 125 g/ha; scale 0 to 100, 0 no effect, 100 complete control
Result Type: Plant response rating, Kochia
Numbers only.

1) COC(=O)c1cccc(N2CCC(n3ccc(C(C)(C)C)n3)C2=O)c1 (stereo not drawn): 100
2) CCC(CC)c1ccn(C2CCN(c3ccc(Br)c(OC)c3)C2=O)n1 (stereo not drawn): 100
3) CCC(C)c1ccn(C2CCN(c3ccc(C)c(OC)c3)C2=O)n1 (stereo not drawn): 100

Batch of 8 molecules: report Plant response rating, Kochia for each.
1. CCC(C)c1ccn(C2CCN(c3ccc(F)c(C(F)(F)F)c3)C2=O)n1 (stereo not drawn)
2. CCOc1cc(N2CCC(n3ccc(C(C)(C)C)n3)C2=O)ccc1C (stereo not drawn)
3. CCCC(C)c1ccn(C2SCN(c3cccc(OC(F)(F)F)c3)C2=O)n1 (stereo not drawn)
4. CSc1cccc(N2CCC(n3ccc(C(C)(C)C)n3)C2=O)c1 (stereo not drawn)
5. CCC(CC)c1ccn(C2CCN(c3ccc(C)c(OC)c3)C2=O)n1 (stereo not drawn)
6. COc1cc(N2CCC(n3ccc(C(C)C)n3)C2=O)ccc1C (stereo not drawn)
7. CCOc1cccc(N2CCC(n3ccc(C(C)C)n3)C2=O)c1 (stereo not drawn)
8. CCC(C)c1ccn(C2CCN(c3cccc(OC)c3)C2=O)n1 (stereo not drawn)

[reply]
1: 100; 2: 100; 3: 40; 4: 90; 5: 100; 6: 100; 7: 100; 8: 100

[ask] Query: Plant response rating, Kochia; subject: CCCOc1cc(N2CCC(n3ccc(C(C)(C)C)n3)C2=O)ccc1C (stereo not drawn)
[reply] 70

----------
Field: Plant response rating, Ragweed, Common. Provide a value for each of the compounds that follow.
Tested on: common ragweed (Ambrosia elatior)
Protocol Description: Test C preemergence
Format: in vivo
Measurement Parameters: preemergence; Rate 250 g/ha; scale 0 to 100, 0 no effect, 100 complete control

Example cases with answers are listed next.
1) CC(C)OC(=O)c1cccc(N2CCC(n3ccc(C(C)(C)C)n3)C2=O)c1 (stereo not drawn) [Compound 124]: 0
2) CCCC(C)c1ccn(C2OCN(c3cccc(C(F)(F)F)c3)C2=O)n1 (stereo not drawn) [Compound 89]: 0
3) CC(C)(C)c1ccn(C2CCN(c3cccc(SC(F)(F)F)c3)C2=O)n1 (stereo not drawn) [Compound 93]: 0

Batch of 6 compounds: report Plant response rating, Ragweed, Common for each.
1. CCC(C)c1ccn(C2OCN(c3cccc(OC(F)(F)F)c3)C2=O)n1 (stereo not drawn) [Compound 67]
2. COC(=O)c1cccc(N2CCC(n3ccc(C(C)(C)C)n3)C2=O)c1 (stereo not drawn) [Compound 73]
3. CCC(C)c1ccn(C2CCN(c3ccc(Br)c(OC)c3)C2=O)n1 (stereo not drawn) [Compound 142]
4. CC(C)(C)c1ccn(C2CCN(c3cccc(OC(F)F)c3)C2=O)n1 (stereo not drawn) [Compound 76]
5. CC(C)(C)c1ccn(C2CCN(c3ccc(F)c(Br)c3)C2=O)n1 (stereo not drawn) [Compound 75]
6. CSc1cccc(N2CCC(n3ccc(C(C)(C)C)n3)C2=O)c1 (stereo not drawn) [Compound 86]

[reply]
70
100
100
0
0
0
